assay: NCI Yeast Anticancer Drug Screen. Data for the bub3 strain (AID 167); details: S. cerevisiae bub3 mutant strain, at 5.0 µM (retest, dose inferred, filed as 0.5)
The panel holds about 79,000 compounds, 15% with a hit somewhere; the sample as a whole holds those more often. Activity calls are given as the source filed them. No stated cut-off is given here; in the data, active means growth inhibition above about 70%; inactive means the rest.
Answer with one of the outcomes given here: active, inactive

Test call, this compound: CC(C)SCC1CO1 (configuration not stated)
inactive

Test call, this compound: CCOC(=O)C(Br)C(Br)c1cccc([N+](=O)[O-])c1 (configuration not stated)
active

Test call, this compound: Cc1cc(C(C)(CC(C)C)c2ccc(O)c(C)c2)ccc1O
active

Test call, this compound: C[Si](C)(c1ccccc1)C1CC(=O)CC(=O)C1
inactive

Test call, this compound: S=C(N/N=C/c1ccccn1)Nc1ccccn1
inactive

Test call, this compound: O=C(/C=C\c1ccccc1)N1c2ccccc2CC1c1c[nH]c2ccccc12 (configuration not stated)
inactive

Test call, this compound: O=C1OC2(Cc3ccccc31)c1ccccc1-c1ccccc12
inactive

Test call, this compound: Cc1cc(Cl)ccc1OCC(=O)Oc1c(Cl)c(Cl)c(Cl)c(Cl)c1Cl
inactive

Test call, this compound: C=C1C(=O)O[C@H]2[C@H](OC(C)=O)[C@@H](C)CCC/C(C)=C/CC[C@@]3(C)O[C@@H]3C[C@@H]12
inactive

Test call, this compound: CCN(CC)CCOc1ccc(/C=C(\C#N)c2ccc(OC)cc2)cc1
inactive

Test call, this compound: COCCCNC(=O)SC
inactive

Test call, this compound: O=Cc1cc(S(=O)(=O)c2ccc(O)c(C=O)c2)ccc1O
inactive

Test call, this compound: O=C1CCC(=O)c2c1c(O)c1ccncc1c2O
inactive

Test call, this compound: CCC(C(=O)C(C)C(O)C(C)CCc1ccc(C)c(O)c1C(=O)O)C1OC(CC)(C2CCC(O)(CC)C(C)O2)CC1C (configuration not stated)
inactive

Test call, this compound: COc1ccc(C2Oc3c(cccc3OC)C=C2[N+](=O)[O-])cc1 (configuration not stated)
inactive

Test call, this compound: CCCCC(CC(=O)O)c1ccc(Cl)cc1 (configuration not stated)
inactive

Test call, this compound: Cc1c2cc[n+](C)cc2c(C)c2c1sc1ccccc12
inactive

Test call, this compound: CCCCN(CCCC)CCCCNc1ccc(C)c2sc3ccccc3c(=O)c12
inactive

Test call, this compound: Cc1c(C#N)c(N)nc2c(C(N)=O)nsc12
inactive

Test call, this compound: CC(C)(C)c1ccc(O)c(C2CCCCC2)c1
inactive

Test call, this compound: C1CCC(OC2CCCCO2)OC1 (configuration not stated)
inactive

Test call, this compound: COc1cccc(C(=O)C(CN(C)C)CN(C)C)c1
inactive

Test call, this compound: CCOC(=O)c1cc2c(nc1N)/C(=C/c1ccccc1)CCCC2
inactive

Test call, this compound: [NH-]c1ccccc1[S-].[NH-]c1ccccc1[S-].[Zn]
inactive

Test call, this compound: O=C1c2ccccc2C(c2ccccc2)(c2ccccc2)N1c1ccccc1
inactive

Test call, this compound: C=C(CCC(C)C1CCC2(C)C3=C(CC(O)C12C)C1(C)CCC(O)C(C)(C)C1CC3)C(C)C(=O)O (configuration not stated)
inactive

Test call, this compound: Nc1ccc(Cc2ccc(Cl)cc2)cc1
inactive

Test call, this compound: Cc1ccc(O)c(Cc2ccccc2Cl)c1
inactive

Test call, this compound: Cc1ccc(N)c(Cc2c(O)ccc3ccccc23)c1
inactive

Test call, this compound: COc1cc(/C=C(\C#N)c2ccc([N+](=O)[O-])cc2)ccc1O
inactive

Test call, this compound: COc1ccc(/C=c2\sc3nnc(CCC(=O)Nc4cccc(C(F)(F)F)c4)n3c2=O)cc1
inactive

Test call, this compound: CC1OC(OC2C(OC3CCC4(C)C(CCC5(C)C4CC=C4C6CC(C)(C)CCC6(CO)C(O)CC45C)C3(C)C)OC(C(=O)O)C(OC3OC(COC4OC(CO)C(O)C(O)C4O)C(O)C(O)C3O)C2O)C(O)C(O)C1O (configuration not stated)
inactive

Test call, this compound: CCc1nc(N)nc(N)c1-c1ccc(NCCN)c([N+](=O)[O-])c1
inactive

Test call, this compound: COc1ccc2nc3cc(Cl)ccc3c(NCCNc3c4ccc(Cl)cc4nc4ccc(OC)cc34)c2c1
inactive

Test call, this compound: C/C(=N\NC(=S)N(C)CCN(C)C(=S)N/N=C(\C)c1ccccn1)c1ccccn1
inactive

Test call, this compound: CCc1c(Nc2ccccc2C)[nH]c(N)nc1=S
inactive

Test call, this compound: Cc1nc(N)sc1N=Nc1cccc(Cl)c1Cl
inactive

Test call, this compound: COc1cc2oc(-c3ccc(O)cc3O)c(CC=C(C)C)c(=O)c2c(O)c1/C=C/C(C)C
inactive

Test call, this compound: CC(=Nc1ccc(N(C)C)cc1)c1ccccc1
inactive

Test call, this compound: Clc1ccc(/C=C\c2ccncc2)cc1
inactive

Test call, this compound: O=C(CCN1CCCCC1)/C(=C\c1ccc(Cl)cc1)c1ccccc1
inactive

Test call, this compound: CCC(=O)OCN1C(=O)C=CC1=O
inactive

Test call, this compound: O=[N+]([O-])c1cc(Cl)c(Cl)cc1NS(=O)(=O)c1ccccc1
inactive

Test call, this compound: COc1ccc(C2CC(CO)ON2c2ccccc2)cc1 (configuration not stated)
inactive

Test call, this compound: C=C/C=C/CC=C
inactive

Test call, this compound: CCCCCN(CCCCC)CC(O)c1cc2ccccc2c2ccccc12 (configuration not stated)
inactive

Test call, this compound: O=C(/C=C/C(=O)OCCCl)OCCCl
inactive

All figures here come from PubChem BioAssay (NCI).
